assay: Pharmacokinetics in KM mice after intravenous administration; details: male, mouse, plasma, 1 mg/kg
Where a SMILES comes first, the peptide text is derived from it. [ ]: non-standard residue; d: D form. Phe(3-Br) = N[C@@H](Cc1cccc(Br)c1)C(=O)O; Nle = CCCC[C@H](N)C(=O)O
metric_name: Cmax (ng/mL)
Answer in ng/mL, number only, no unit symbol.

Ask: Please give the measured Cmax for this molecule: CCCC[C@H](NC(=O)[C@H](Cc1c[nH]c2ccccc12)NC(C)=O)C(=O)N[C@@H](CC(=O)O)C(=O)N[C@@H](Cc1cccc(Br)c1)C(N)=O [HT-177, Ac-Trp-Nle-Asp-Phe(3-Br)-NH2] (Ac-W[Nle]D[Phe(3-Br)]-NH2)
Reply: 403

Ask: What about CSCC[C@H](NC(=O)[C@@H](Cc1c[nH]c2ccccc12)NC(C)=O)C(=O)N[C@@H](CC(=O)O)C(=O)N[C@@H](Cc1cccc(Br)c1)C(N)=O ?
Reply: 1930

---

test: Pharmacokinetics in KM mice after intravenous administration; details: male, mouse, plasma, 1 mg/kg, T1/2, KM mice male, I.V. 1 mg/kg
metric_name: half-life (min)
Answer in min, number only, no unit symbol.

Ask: Please give the measured half-life for this compound: CSCC[C@H](NC(=O)[C@@H](Cc1c[nH]c2ccccc12)NC(C)=O)C(=O)N[C@@H](CC(=O)O)C(=O)N[C@@H](Cc1cccc(Br)c1)C(N)=O
Reply: 96.1

---

Answer each item with its documented EC50.
molecular target: CCK-B receptors (CHO-CCK) (Homo sapiens); construct: expressed in transfected cells; host or cells: CHO (CHO-CCK model cells); experiment: Calcium flux (Fluo-8) antagonist test on CHO-CCK model cells in presence of CCK8; format: cell-based; conditions: in presence of 10 nM CCK8
Where a SMILES comes first, the peptide text is derived from it. [ ]: non-standard residue; d: D form. The star is where a group is joined. Phe(3-Br) = N[C@@H](Cc1cccc(Br)c1)C(=O)O; Fmoc = O=C(OCC1c2ccccc2-c2ccccc21)*; Nle = CCCC[C@H](N)C(=O)O
Answer in nM, number only, no unit symbol.

Ask: Please give the measured EC50 for this molecule: CCCC[C@H](NC(=O)[C@@H](Cc1c(C)[nH]c2ccccc12)NC(C)=O)C(=O)N[C@@H](CCC(=O)O)C(=O)N[C@@H](Cc1cn(C)c2ccccc12)C(N)=O
Reply: 620

Ask: What about CCCC[C@H](NC(=O)[C@H](Cc1c[nH]c2ccccc12)NC(=O)OCC1c2ccccc2-c2ccccc21)C(=O)N[C@@H](CC(=O)O)C(=O)N[C@@H](Cc1cccc(Br)c1)C(N)=O [HT-198, Fmoc-Trp-Nle-Asp-Phe(3-Br)-NH2] (Fmoc-W[Nle]D[Phe(3-Br)]-NH2) ?
Reply: 908

---

target: CCK-B receptors (CHO-CCK) (Homo sapiens); construct: expressed in transfected cells; host or cells: CHO (CHO-CCK model cells); assay: Calcium flux (Fluo-8) agonist test on CHO-CCK model cells; assay type: cell-based; settings: compound at 10 μM; percentage of signal of 20 nM CCK8 alone
Doc: threshold 6% (exclusive). Items with Agonistic Activity (%) at 10 μM beneath it return True; others return False.

Ask: Strictly below 6% in Agonistic Activity (%) at 10 μM? COC(=O)C[C@H](NC(=O)[C@H](CCSC)NC(=O)[C@H](N)Cc1c[nH]c2ccccc12)C(=O)N[C@@H](Cc1ccc([N+](=O)[O-])cc1)C(N)=O
Reply: True

Ask: What about COC(=O)C[C@H](NC(=O)[C@H](CCS(C)(=O)=O)NC(=O)[C@H](N)Cc1c[nH]c2ccccc12)C(=O)N[C@@H](Cc1ccccc1[N+](=O)[O-])C(N)=O ?
Reply: False

Ask: What about COC(=O)C[C@H](NC(=O)[C@H](CCS(C)(=O)=O)NC(=O)[C@H](N)Cc1c[nH]c2ccccc12)C(=O)N[C@@H](Cc1ccccc1)C(N)=O ?
Reply: True

Ask: What about CS(=O)(=O)CC[C@H](NC(=O)[C@H](N)Cc1c[nH]c2ccccc12)C(=O)N[C@@H](CC(=O)O)C(=O)N[C@@H](Cc1cc(Cl)cc(Cl)c1)C(N)=O ?
Reply: False

Ask: What about C[S+]([O-])CC[C@H](NC(=O)[C@H](N)Cc1c[nH]c2ccccc12)C(=O)N[C@@H](CC(=O)O)C(=O)N[C@@H](Cc1cc(Cl)cc(Cl)c1)C(N)=O (stereo partly drawn) ?
Reply: False

Ask: What about Cc1ccc(C[C@H](NC(=O)[C@H](CC(=O)O)NC(=O)[C@H](CCS(C)(=O)=O)NC(=O)[C@H](N)Cc2c[nH]c3ccccc23)C(N)=O)cc1 ?
Reply: False

Ask: What about COC(=O)C[C@H](NC(=O)[C@H](CC[S+](C)[O-])NC(=O)[C@H](N)Cc1c[nH]c2ccccc12)C(=O)N[C@@H](Cc1ccc(N=[N+]=[N-])cc1)C(N)=O (stereo partly drawn) ?
Reply: False

Ask: What about COC(=O)C[C@H](NC(=O)[C@H](CCS(C)(=O)=O)NC(=O)[C@H](N)Cc1c[nH]c2ccccc12)C(=O)N[C@@H](Cc1cc(F)cc(F)c1)C(N)=O ?
Reply: True

---

target: CCK-B receptors (CHO-CCK) (Homo sapiens, UniProt P32239); construct: expressed in transfected cells; host or cells: CHO (CHO-CCK model cells); assay: Calcium flux (Fluo-8) agonist test on CHO-CCK model cells; type: cell-based; details: compound at 10 μM; percentage of signal of 20 nM CCK8 alone
Sequence (P32239 whole entry): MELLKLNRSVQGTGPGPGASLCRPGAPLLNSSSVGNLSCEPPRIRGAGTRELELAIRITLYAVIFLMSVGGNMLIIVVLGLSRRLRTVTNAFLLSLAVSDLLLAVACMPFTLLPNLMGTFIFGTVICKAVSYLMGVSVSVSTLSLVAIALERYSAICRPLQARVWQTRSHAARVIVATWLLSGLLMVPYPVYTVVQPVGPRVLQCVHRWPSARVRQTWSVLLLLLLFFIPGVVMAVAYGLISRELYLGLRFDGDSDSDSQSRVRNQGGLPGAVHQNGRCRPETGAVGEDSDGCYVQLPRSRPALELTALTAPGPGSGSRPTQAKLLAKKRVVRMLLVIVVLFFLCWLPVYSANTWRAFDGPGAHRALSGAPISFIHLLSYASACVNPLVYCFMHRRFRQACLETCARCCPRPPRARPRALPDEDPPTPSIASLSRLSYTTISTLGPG
Criterion: Agonistic Activity (%) at 10 μM meeting or surpassing 20%. Met: T. Not met: F.

Ask: Reported Agonistic Activity (%) at 10 μM reaches at least 20% for CS(=O)(=O)CC[C@H](NC(=O)[C@H](N)Cc1c[nH]c2ccccc12)C(=O)N[C@@H](CC(=O)O)C(=O)N[C@@H](Cc1ccc(F)cc1)C(N)=O ?
Reply: T

Ask: What about COC(=O)C[C@H](NC(=O)[C@H](CCSC)NC(=O)[C@H](N)Cc1c[nH]c2ccccc12)C(=O)N[C@@H](Cc1ccc(Br)cc1)C(N)=O ?
Reply: F

Ask: What about CSCC[C@H](NC(=O)[C@H](N)Cc1c[nH]c2ccccc12)C(=O)N[C@@H](CC(=O)O)C(=O)N[C@@H](Cc1ccc(F)cc1)C(N)=O ?
Reply: F

Ask: What about C[S+]([O-])CC[C@H](NC(=O)[C@H](N)Cc1c[nH]c2ccccc12)C(=O)N[C@@H](CC(=O)O)C(=O)N[C@@H](Cc1cccc(F)c1)C(N)=O (stereo partly drawn) ?
Reply: T

Ask: What about CS(=O)(=O)CC[C@H](NC(=O)[C@H](N)Cc1c[nH]c2ccccc12)C(=O)N[C@@H](CC(=O)O)C(=O)N[C@@H](Cc1cccc(F)c1)C(N)=O ?
Reply: T

Ask: What about CS(=O)(=O)CC[C@H](NC(=O)[C@H](N)Cc1c[nH]c2ccccc12)C(=O)N[C@@H](CC(=O)O)C(=O)N[C@@H](Cc1ccccc1F)C(N)=O ?
Reply: T

Ask: What about CSCC[C@H](NC(=O)[C@H](N)Cc1c[nH]c2ccccc12)C(=O)N[C@@H](CC(=O)O)C(=O)N[C@@H](Cc1cc(F)cc(F)c1)C(N)=O ?
Reply: T

Ask: What about CSCC[C@H](NC(=O)[C@H](N)Cc1c[nH]c2ccccc12)C(=O)N[C@@H](CC(=O)O)C(=O)N[C@@H](Cc1ccc(N=[N+]=[N-])cc1)C(N)=O ?
Reply: F

Ask: What about C[S+]([O-])CC[C@H](NC(=O)[C@H](N)Cc1c[nH]c2ccccc12)C(=O)N[C@@H](CC(=O)O)C(=O)N[C@@H](Cc1cccc(Br)c1)C(N)=O (stereo partly drawn) ?
Reply: T

Ask: What about CSCC[C@H](NC(=O)[C@H](N)Cc1c[nH]c2ccccc12)C(=O)N[C@@H](CC(=O)O)C(=O)N[C@@H](Cc1ccccc1F)C(N)=O ?
Reply: T

Ask: What about COC(=O)C[C@H](NC(=O)[C@H](CCSC)NC(=O)[C@H](N)Cc1c[nH]c2ccccc12)C(=O)N[C@@H](Cc1ccc(Cl)cc1)C(N)=O ?
Reply: F

Ask: What about CS(=O)(=O)CC[C@H](NC(=O)[C@H](N)Cc1c[nH]c2ccccc12)C(=O)N[C@@H](CC(=O)O)C(=O)N[C@@H](Cc1ccc(Br)cc1)C(N)=O ?
Reply: F

Ask: What about COC(=O)C[C@H](NC(=O)[C@H](CCSC)NC(=O)[C@H](N)Cc1c[nH]c2ccccc12)C(=O)N[C@@H](Cc1cc(F)c(F)c(F)c1)C(N)=O ?
Reply: F

Ask: What about CS(=O)(=O)CC[C@H](NC(=O)[C@H](N)Cc1c[nH]c2ccccc12)C(=O)N[C@@H](CC(=O)O)C(=O)N[C@@H](Cc1cccc(Cl)c1)C(N)=O ?
Reply: T

Ask: What about COC(=O)C[C@H](NC(=O)[C@H](CCSC)NC(=O)[C@H](N)Cc1c[nH]c2ccccc12)C(=O)N[C@@H](Cc1cc(Cl)cc(Cl)c1)C(N)=O ?
Reply: T

Ask: What about COC(=O)C[C@H](NC(=O)[C@H](CCS(C)(=O)=O)NC(=O)[C@H](N)Cc1c[nH]c2ccccc12)C(=O)N[C@@H](Cc1ccccc1F)C(N)=O ?
Reply: F

Ask: What about COC(=O)C[C@H](NC(=O)[C@H](CC[S+](C)[O-])NC(=O)[C@H](N)Cc1c[nH]c2ccccc12)C(=O)N[C@@H](Cc1ccc(Br)cc1)C(N)=O (stereo partly drawn) ?
Reply: F

Ask: What about CSCC[C@H](NC(=O)[C@H](N)Cc1c[nH]c2ccccc12)C(=O)N[C@@H](CC(=O)O)C(=O)N[C@@H](Cc1ccc([N+](=O)[O-])cc1)C(N)=O ?
Reply: T
